# Tested on: Fusobacterium nucleatum subsp. animalis
# assayDetails: growth AUC relative to DMSO control (median of replicates) (fraction); higher = more growth (less inhibition), active = hit call of the paper
# recordedConditions: 20 µM; 24 h
Please enter YES where growth AUC is greater than or equal to 1, and NO where it is lower.

QUERY: Say whether CSC1=N[C@@](C)(c2ccccc2)C(=O)N1Nc1ccccc1 shows growth AUC of 1 or more.
RESULT: YES

# ---- query compound ----
QUERY: Say whether ClC1=C(Cl)C2(Cl)[C@H]3[C@@H]4O[C@@H]4[C@H](Cl)[C@H]3C1(Cl)C2(Cl)Cl (single isomer, unassigned; isomer b) shows growth AUC of 1 or more.
RESULT: NO

###

growth AUC by entry:
# Test system: Parabacteroides distasonis
# assayDetails: growth AUC relative to DMSO control (median of replicates) (fraction); higher = more growth (less inhibition), active = hit call of the paper
# recordedConditions: 20 µM; 24 h
Give only the figure.

Worked examples follow.
QUERY: Could you tell me which growth AUC is on file for CCC(C)(C)C(=O)OC1=C(c2ccc(Cl)cc2Cl)C(=O)OC12CCCCC2 ?
RESULT: 0.861

QUERY: Could you tell me which growth AUC is on file for O=[N+]([O-])c1ccc2ccc3cccc4ccc1c2c34 ?
RESULT: 0.579

More entries:
QUERY: Could you tell me which growth AUC is on file for Fc1ccc(Oc2ccnc3cc(Cl)cc(Cl)c23)cc1 ?
RESULT: 0.966

QUERY: Could you tell me which growth AUC is on file for Cc1cc(Cl)ccc1N=CN(C)C.Cl ?
RESULT: 1.02

QUERY: Could you tell me which growth AUC is on file for C1=Cc2cccc3cccc1c23 ?
RESULT: 0.889

QUERY: Could you tell me which growth AUC is on file for O=c1oc2ccccc2c(O)c1C1CC(c2ccc(OCc3ccc(C(F)(F)F)cc3)cc2)Cc2ccccc21 (mixture of isomers) ?
RESULT: 0.031

QUERY: Could you tell me which growth AUC is on file for Nc1c([N+](=O)[O-])ccc(Oc2ccccc2)c1Cl ?
RESULT: 0.951

QUERY: Could you tell me which growth AUC is on file for CCNc1nc(NC(C)C)nc(OC)n1 ?
RESULT: 0.922

QUERY: Could you tell me which growth AUC is on file for O=C(NC(=O)c1c(F)cccc1F)Nc1ccc(Cl)c(Oc2ncc(C(F)(F)F)cc2Cl)c1 ?
RESULT: 1.02

QUERY: Could you tell me which growth AUC is on file for CCCCOC(=O)[C@@H](C)Oc1ccc(Oc2ccc(C#N)cc2F)cc1 ?
RESULT: 0.704

QUERY: Could you tell me which growth AUC is on file for Nc1cnn(-c2ccccc2)c(=O)c1Cl ?
RESULT: 0.996

QUERY: Could you tell me which growth AUC is on file for C#CCN1C(=O)COc2cc(F)c(N3C(=O)C4=C(CCCC4)C3=O)cc21 ?
RESULT: 0.855

QUERY: Could you tell me which growth AUC is on file for COS(=O)(=O)[O-].Cn1c(-c2ccccc2)cc(-c2ccccc2)[n+]1C ?
RESULT: 0.985

QUERY: Could you tell me which growth AUC is on file for COP(=S)(OC)Oc1cc(Cl)c(Br)cc1Cl ?
RESULT: 0.946

QUERY: Could you tell me which growth AUC is on file for c1ccc2c(c1)ccc1c3ccccc3sc21 ?
RESULT: 1.1
